Test system: GAK (Melanoma)
Assay: combination Emax (second highest fraction inhibited in the dose matrix, 72 h); higher = more inhibition; extreme values may be limits of the assay
property name: combination Emax

Some solved cases for reference:
compound	combination Emax
NC1(C(=O)N[C@@H](CCO)c2ccc(Cl)cc2)CCN(c2ncnc3[nH]ccc23)CC1 [Capivasertib] + CC(=O)c1c(C)c2cnc(Nc3ccc(N4CCNCC4)cn3)nc2n(C2CCCC2)c1=O [Palbociclib] (first compound max 10 µM, 7x7, partner max 10 µM)	0.474
CN(CCO)CC[C@H](CSc1ccccc1)Nc1ccc(S(=O)(=O)NC(=O)c2ccc(N3CCC([C@@H](O)c4ccccc4-c4ccc(Cl)cc4)CC3)cc2)cc1S(=O)(=O)C(F)(F)F [AZD4320] + Cn1cnc2c(F)c(Nc3ccc(Br)cc3Cl)c(C(=O)NOCCO)cc21 [Selumetinib] (first compound max 1 µM, 7x7, partner max 3 µM)	0.796

Turning now to a further compound:
Data request, read-out combination Emax, for COc1cccc(OCCCN)c1-c1cc(Nc2cnc(C#N)cn2)n[nH]1 [Prexasertib] + C=CCn1c(=O)c2cnc(Nc3ccc(N4CCN(C)CC4)cc3)nc2n1-c1cccc(C(C)(C)O)n1 [AZD1775] (first compound max 1 µM, partner max 1 µM)
0.783

The origin of these recorded values is the supplement of paper PMC11061612.
